Every entry's value here was drawn from patent US6489364B2.

Molecular target: purified HIV proteinase (Human immunodeficiency virus type 1 group M subtype B, UniProt P04585)
Construct: purified HIV proteinase
Test: biochemical
pKi: −log10 of the molar value.
Parameter pKi: see the listing below.
recorded endpoint: pKi

1. CNC(=O)[C@@H](NC(=O)[C@H](OCc1ccc(-c2cccc([N+](=O)[O-])c2)cc1)[C@H](O)[C@@H](O)[C@@H](OCc1ccc(-c2cccc([N+](=O)[O-])c2)cc1)C(=O)N[C@H](C(=O)NC)C(C)C)C(C)C: 8.85
2. CNC(=O)[C@@H](NC(=O)[C@H](OCc1ccc(-c2cccs2)cc1)[C@H](O)[C@@H](O)[C@@H](OCc1ccc(-c2cccs2)cc1)C(=O)N[C@H](C(=O)NC)C(C)C)C(C)C: 9.77
3. CNC(=O)[C@@H](NC(=O)[C@H](OCc1ccc(C2=C(O)C(=O)CCC2)cc1)[C@H](O)[C@@H](O)[C@@H](OCc1ccc(C2=C(O)C(=O)CCC2)cc1)C(=O)N[C@H](C(=O)NC)C(C)C)C(C)C: 9.30
4. CNC(=O)C(NC(=O)C(OCc1ccc(-c2ccccc2)cc1)C(O)C(O)C(OCc1ccc(-c2ccccc2)cc1)C(=O)NC(C(=O)NC)C(C)C)C(C)C (centres unmarked): 9.17
5. CNC(=O)[C@@H](NC(=O)[C@H](OCc1ccc(-c2ccsc2)cc1)[C@H](O)[C@@H](O)[C@@H](OCc1ccc(-c2ccsc2)cc1)C(=O)N[C@H](C(=O)NC)C(C)C)C(C)C: 8.92
